Just for reference, patent US9352013B2 is where these values come from.

Assay: Example 1: pharmacokinetics after in-clinic subcutaneous dose
Format: in vivo, human
Conditions: human, in vivo, sc, 1.75 mg, 1.75 mg SC, Visit 5; read-out: AUC(0-4h), Median
measure: AUC(0-t) (ng·h/mL)
Please give a number only; it is taken to be in ng·h/mL.

Quick check: AUC(0-t) of CCCC[C@H](NC(C)=O)C(=O)N[C@H]1CC(=O)NCCCC[C@@H](C(=O)O)NC(=O)[C@H](Cc2c[nH]c3ccccc23)NC(=O)[C@H](CCCNC(=N)N)NC(=O)[C@@H](Cc2ccccc2)NC(=O)[C@H](Cc2c[nH]cn2)NC1=O [bremelanotide] ?
179
